Cited source for all entries: PubChem BioAssay AID2060607

Tested on: 876862-298-R-J1-PDC complex spheroids, viability % test/control
Method summary: Anticancer human tumor 876862-298-R-J1-PDC patient-derived endometrial carcinoma cell line growth inhibition [CLK]; active = viability on the fitted dose curve at most 10% of control; inactive = the rest
Test context: second compound 1 µM; first compound 0.316 µM
Could you please pick one outcome from this set? y = active, n = inactive

- CCN1CCN(Cc2ccc(Nc3ncc(F)c(-c4cc(F)c5nc(C)n(C(C)C)c5c4)n3)nc2)CC1 + CNC(=O)c1ccc(Nc2nc(OC3CCCC3)c3c(-c4ccc5nc(C)oc5c4)c[nH]c3n2)c(OC)c1: n
- COC1C=CCC(C)C(C)S(=O)(=O)NC(=O)c2ccc3c(c2)N(CC2CCC21)CC1(CCCc2cc(Cl)ccc21)CO3 (stereo unspecified) + CNC(=O)c1ccc(Nc2nc(OC3CCCC3)c3c(-c4ccc5nc(C)oc5c4)c[nH]c3n2)c(OC)c1: n
- C=C(F)C(=O)N1CCN(c2nc(OCC3CCCN3C)nc3c2CCN(c2cccc4cccc(Cl)c24)C3)CC1CC#N (stereo unspecified) + CNC(=O)c1ccc(Nc2nc(OC3CCCC3)c3c(-c4ccc5nc(C)oc5c4)c[nH]c3n2)c(OC)c1: n
- CC1COCCN1c1cc(C2(S(C)(=N)=O)CC2)nc(-c2ccnc3[nH]ccc23)n1 (stereo unspecified) + CNC(=O)c1ccc(Nc2nc(OC3CCCC3)c3c(-c4ccc5nc(C)oc5c4)c[nH]c3n2)c(OC)c1: n
- CC(Nc1ccc2c(c1)OCCn1cc(N3C(=O)OCC3C(F)F)nc1-2)C(N)=O (stereo unspecified) + CNC(=O)c1ccc(Nc2nc(OC3CCCC3)c3c(-c4ccc5nc(C)oc5c4)c[nH]c3n2)c(OC)c1: n
- CCc1c2c(nc3ccc(O)cc13)-c1cc3c(c(=O)n1C2)COC(=O)[C@]3(O)CC + CN1CCN(c2cc(C(=O)Nc3cc4cc(-c5cnn(C)c5)ccc4cn3)ccn2)CC1: y
- CCCS(=O)(=O)Nc1ccc(F)c(C(=O)c2c[nH]c3ncc(-c4ccc(Cl)cc4)cc23)c1F + CN1CCN(c2cc(C(=O)Nc3cc4cc(-c5cnn(C)c5)ccc4cn3)ccn2)CC1: y
- C=CC(=O)N1CCN(c2nc(=O)n(-c3c(C)ccnc3C(C)C)c3nc(-c4c(O)cccc4F)c(F)cc23)C(C)C1 (stereo unspecified) + CN1CCN(c2cc(C(=O)Nc3cc4cc(-c5cnn(C)c5)ccc4cn3)ccn2)CC1: y

Ask: // outcome(item) with item = CC(CO)NC(=O)c1cc(-c2ccc(Cl)cc2)nn(-c2cnn(C)c2)c1=O (stereo unspecified) + CN1CCN(c2cc(C(=O)Nc3cc4cc(-c5cnn(C)c5)ccc4cn3)ccn2)CC1
Result: y

Ask: What would you report for COc1c(OCCCN2CCOCC2)ccc2c3n(c(=NC(=O)c4cnc(N)nc4)nc12)CCN3 + CN1CCN(c2cc(C(=O)Nc3cc4cc(-c5cnn(C)c5)ccc4cn3)ccn2)CC1 ?
Result: y

Ask: Also, Nc1ccccc1NC(=O)c1ccc(CNC(=O)OCc2cccnc2)cc1 + CN1CCN(c2cc(C(=O)Nc3cc4cc(-c5cnn(C)c5)ccc4cn3)ccn2)CC1 please.
Result: y

* * *

Test system: 876862-298-R-J1-PDC complex spheroids, viability % test/control
Method summary: Anticancer human tumor 876862-298-R-J1-PDC cell line growth inhibition [CLK];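 note: spheroids exposed to drugs for 7 days before readout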;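 for viability, T/C: 100% = DMSO vehicle control wells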
Test context: second compound 0.316 µM; first compound 0.0316 µM; stronger effect = lower value
Answer each item with its documented viability, T/C.

Solved cases below.
- CCc1c2c(nc3ccc(O)cc13)-c1cc3c(c(=O)n1C2)COC(=O)[C@]3(O)CC + CN1CCN(c2cc(C(=O)Nc3cc4cc(-c5cnn(C)c5)ccc4cn3)ccn2)CC1: 1.32%
- Nc1ccccc1NC(=O)c1ccc(CNC(=O)OCc2cccnc2)cc1 + CN1CCN(c2cc(C(=O)Nc3cc4cc(-c5cnn(C)c5)ccc4cn3)ccn2)CC1: 2.84%
- O=C(c1cc(Cc2n[nH]c(=O)c3ccccc23)ccc1F)N1CCN(C(=O)C2CC2)CC1 + CNC(=O)c1ccc(Nc2nc(OC3CCCC3)c3c(-c4ccc5nc(C)oc5c4)c[nH]c3n2)c(OC)c1: 49.1%
- CCN1CCN(Cc2ccc(Nc3ncc(F)c(-c4cc(F)c5nc(C)n(C(C)C)c5c4)n3)nc2)CC1 + CNC(=O)c1ccc(Nc2nc(OC3CCCC3)c3c(-c4ccc5nc(C)oc5c4)c[nH]c3n2)c(OC)c1: 49.6%
- C#Cc1c(F)ccc2cc(O)cc(-c3ncc4c(N5CC6CCC(C5)N6)nc(OCC56CCCN5CC(F)C6)nc4c3F)c12 (stereo not drawn) + CN1CCN(c2cc(C(=O)Nc3cc4cc(-c5cnn(C)c5)ccc4cn3)ccn2)CC1: 5.98%

Hey, can you go through the list below and give me viability, T/C for every item?
1. COC1C=CCC(C)C(C)S(=O)(=O)NC(=O)c2ccc3c(c2)N(CC2CCC21)CC1(CCCc2cc(Cl)ccc21)CO3 (stereo not drawn) + CNC(=O)c1ccc(Nc2nc(OC3CCCC3)c3c(-c4ccc5nc(C)oc5c4)c[nH]c3n2)c(OC)c1
2. CC(CO)NC(=O)c1cc(-c2ccc(Cl)cc2)nn(-c2cnn(C)c2)c1=O (stereo not drawn) + CNC(=O)c1ccc(Nc2nc(OC3CCCC3)c3c(-c4ccc5nc(C)oc5c4)c[nH]c3n2)c(OC)c1

Result:
1: 40.3%; 2: 38.7%

* * *

Test system: 876862-298-R-J1-PDC complex spheroids, viability % test/control
Method summary: Anticancer human tumor 876862-298-R-J1-PDC cell line growth inhibition [CLK];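 note: spheroids exposed to drugs for 7 days before readout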
Test context: curve of first compound; second compound 0.1 µM
pIC50: −log10 of the molar value.
Measured property: pIC50

Known results for compounds:
- C=CC(=O)Nc1cc(Nc2nccc(-c3cn(C)c4ccccc34)n2)c(OC)cc1N(C)CCN(C)C + CNC(=O)c1ccc(Nc2nc(OC3CCCC3)c3c(-c4ccc5nc(C)oc5c4)c[nH]c3n2)c(OC)c1: > 9.02
- CCCS(=O)(=O)Nc1ccc(F)c(C(=O)c2c[nH]c3ncc(-c4ccc(Cl)cc4)cc23)c1F + CN1CCN(c2cc(C(=O)Nc3cc4cc(-c5cnn(C)c5)ccc4cn3)ccn2)CC1: 6.01
- Nc1ccn(C2OC(CO)C(O)C2(F)F)c(=O)n1 (stereo not given) + CN1CCN(c2cc(C(=O)Nc3cc4cc(-c5cnn(C)c5)ccc4cn3)ccn2)CC1: > 7.50
- COc1cccc2c1C(=O)c1c(O)c3c(c(O)c1C2=O)CC(O)(C(=O)CO)CC3OC1CC(N)C(O)C(C)O1 (stereo not given) + CNC(=O)c1ccc(Nc2nc(OC3CCCC3)c3c(-c4ccc5nc(C)oc5c4)c[nH]c3n2)c(OC)c1: > 7.50
- Cn1ncnc1[C@H]1c2n[nH]c(=O)c3cc(F)cc(c23)N[C@@H]1c1ccc(F)cc1 + CNC(=O)c1ccc(Nc2nc(OC3CCCC3)c3c(-c4ccc5nc(C)oc5c4)c[nH]c3n2)c(OC)c1: > 9.50

Working through the 4 compounds below one at a time, give pIC50 for each.
1. COc1c(OCCCN2CCOCC2)ccc2c3n(c(=NC(=O)c4cnc(N)nc4)nc12)CCN3 + CNC(=O)c1ccc(Nc2nc(OC3CCCC3)c3c(-c4ccc5nc(C)oc5c4)c[nH]c3n2)c(OC)c1
2. C#Cc1c(F)ccc2cc(O)cc(-c3ncc4c(N5CC6CCC(C5)N6)nc(OCC56CCCN5CC(F)C6)nc4c3F)c12 (stereo not given) + CN1CCN(c2cc(C(=O)Nc3cc4cc(-c5cnn(C)c5)ccc4cn3)ccn2)CC1
3. CC(Nc1ccc2c(c1)OCCn1cc(N3C(=O)OCC3C(F)F)nc1-2)C(N)=O (stereo not given) + CN1CCN(c2cc(C(=O)Nc3cc4cc(-c5cnn(C)c5)ccc4cn3)ccn2)CC1
4. CC1(C)CCC(CN2CCN(c3ccc(C(=O)NS(=O)(=O)c4ccc(NCC5CCOCC5)c([N+](=O)[O-])c4)c(Oc4cnc5[nH]ccc5c4)c3)CC2)=C(c2ccc(Cl)cc2)C1 + CNC(=O)c1ccc(Nc2nc(OC3CCCC3)c3c(-c4ccc5nc(C)oc5c4)c[nH]c3n2)c(OC)c1

Result:
["> 8.50", 6.30, "> 7.50", 6.33]

Ask: For the compound CC(CO)NC(=O)c1cc(-c2ccc(Cl)cc2)nn(-c2cnn(C)c2)c1=O (stereo not given) + CNC(=O)c1ccc(Nc2nc(OC3CCCC3)c3c(-c4ccc5nc(C)oc5c4)c[nH]c3n2)c(OC)c1 , what pIC50 is on record?
Result: > 7.50

* * *

Exercise: for every item that follows, state its recorded viability, T/C.
Test system: 876862-298-R-J1-PDC complex spheroids, viability % test/control
Method summary: Anticancer human tumor 876862-298-R-J1-PDC cell line growth inhibition [CLK];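 note: spheroids exposed to drugs for 7 days before readout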;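 for viability, T/C: 100% = DMSO vehicle control wells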
Test context: second compound 10 µM; first compound 10 µM; stronger effect = lower value
Give bare numbers, in %.

Worked cases, viability, T/C given:
- C#Cc1c(F)ccc2cc(O)cc(-c3ncc4c(N5CC6CCC(C5)N6)nc(OCC56CCCN5CC(F)C6)nc4c3F)c12 (stereo not given) + CN1CCN(c2cc(C(=O)Nc3cc4cc(-c5cnn(C)c5)ccc4cn3)ccn2)CC1: 1.54
- O=C(c1cc(Cc2n[nH]c(=O)c3ccccc23)ccc1F)N1CCN(C(=O)C2CC2)CC1 + CN1CCN(c2cc(C(=O)Nc3cc4cc(-c5cnn(C)c5)ccc4cn3)ccn2)CC1: 0.83
- CC1COCCN1c1cc(C2(S(C)(=N)=O)CC2)nc(-c2ccnc3[nH]ccc23)n1 (stereo not given) + CNC(=O)c1ccc(Nc2nc(OC3CCCC3)c3c(-c4ccc5nc(C)oc5c4)c[nH]c3n2)c(OC)c1: 3.99
- CC(CO)NC(=O)c1cc(-c2ccc(Cl)cc2)nn(-c2cnn(C)c2)c1=O (stereo not given) + CNC(=O)c1ccc(Nc2nc(OC3CCCC3)c3c(-c4ccc5nc(C)oc5c4)c[nH]c3n2)c(OC)c1: 20.9

Then there is this molecule:
Ask: Find the recorded viability, T/C belonging to COC1C=CCC(C)C(C)S(=O)(=O)NC(=O)c2ccc3c(c2)N(CC2CCC21)CC1(CCCc2cc(Cl)ccc21)CO3 (stereo not given) + CN1CCN(c2cc(C(=O)Nc3cc4cc(-c5cnn(C)c5)ccc4cn3)ccn2)CC1 and report it.
Result: 1.78
